Please provide measured IC50 for the entries that follow.
study.system: T478K RBD (R319-F541 with T478K) (SARS-CoV-2, UniProt P0DTC2 319-541)
method.description: lateral flow NC50, RBD-AuNP vs immobilised ACE2
One number for each entry, in µg/mL.

The cases that follow already have their IC50 on record.
1035224 (antibody, V domains shown) VH: EVQLQQSGAEFVRPGALVKLSCKASGFNIKDDYMHWVKQRPEQGLEWIGWIDPENGNSIYDPKFQGKASITADTSSNTAYLQLSSLTSEDTAVYYCARGEYFGSGSFAYWGQGTLVTVSA VL: QIVLTQSPAIMSASPGEKVTISCSASSSVSYMYWYQQKPGSSPKPWIYRTSNLASGVPARFSGSGSGTSYSLTISSMEAEDAATYYCQQYHSYPYMYTFGGGTKLEIK | 0.76
1035709 (antibody, V domains shown) VH: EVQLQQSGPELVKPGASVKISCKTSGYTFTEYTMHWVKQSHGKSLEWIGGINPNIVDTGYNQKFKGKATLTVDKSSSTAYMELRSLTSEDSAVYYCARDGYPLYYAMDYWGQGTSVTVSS VL: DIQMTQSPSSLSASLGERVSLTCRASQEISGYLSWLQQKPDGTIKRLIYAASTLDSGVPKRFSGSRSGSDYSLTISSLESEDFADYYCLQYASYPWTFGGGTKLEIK | 1.35

Let us move to another entry and its IC50.
Sample 1035240 (antibody, V domains shown) VH: QVQLQQSGAELARPGASVKMSCKASGYTFTTYTMHWVKQRPGQGLEWIGYINPSSGYTNYNQKFKDKATLTADTSSSTAYMQLSSLTSEDSAVYYCARRNPLYAMDYWGQGTSVTVSS VL: DIKMTQSPSSMYASLGERVTITCKASQDINSYLNWFQQKPGKSPKTLIYRANRLVDGVPSRFSGSGSGQDYSLTISSLEYEDMGIYYCLQYDEFPYTFGGGTKLEIK — what was its IC50?
0.61
